Where these numbers come from: ChEMBL document CHEMBL1133723

Test system Human immunodeficiency virus type 1 integrase (Human immunodeficiency virus 1), IC50 listed for each of the molecules.
The figure you give is taken to be in nM; do not add the unit.

// below: answered molecules
# MOLECULE, RESULT UNITS, REPORTED MEASUREMENT
data = [
    ("O=C(/C=C/c1ccc(O)c(O)c1)O[C@H]1[C@H](O)C[C@](O)(C(=O)O)C[C@H]1OC(=O)/C=C/c1ccc(O)c(O)c1 (stereo in doubt; form 1)", "nM", 540),
    ("COC1/C=C/OC2(C)Oc3c(C)c(O)c4c(O)c(c(C=NN5C(C)CN(Cc6ccc([N+](=O)[O-])cc6)CC5C)c(O)c4c3C2=O)NC(=O)/C(C)=C\\C=C\\C(C)C(O)C(C)C(O)C(C)C(OC(C)=O)C1C (centres undefined)", "nM", 19700),
    ("O=c1c(O)c(-c2ccc(O)c(O)c2)oc2cc(O)c(O)c(O)c12 [QUERCETAGETIN]", "nM", 600),
    ("COc1cccc2c1C(=O)c1c(O)c3c(c(O)c1C2=O)C[C@@](O)(C(=O)CO)C[C@@H]3O[C@H]1C[C@H](N)[C@H](O)[C@H](C)O1 [DOXORUBICIN]", "nM", 2400),
    ("C[Si](C)(C)C", "nM", 5000),
]

Now let's try a different one.
Notebook: pull reported IC50 for Human immunodeficiency virus type 1 integrase (Human immunodeficiency virus 1), entry "N#C/C(=C\c1ccc(O)c(O)c1)C(=O)NCCCNC(=O)/C(C#N)=C/c1ccc(O)c(O)c1" 3000

----------
biological target: Human immunodeficiency virus type 1 integrase (Human immunodeficiency virus 1) (UniProt Q7ZJM1); conditions: at 1 mM
Sequence (Q7ZJM1 as listed by the source): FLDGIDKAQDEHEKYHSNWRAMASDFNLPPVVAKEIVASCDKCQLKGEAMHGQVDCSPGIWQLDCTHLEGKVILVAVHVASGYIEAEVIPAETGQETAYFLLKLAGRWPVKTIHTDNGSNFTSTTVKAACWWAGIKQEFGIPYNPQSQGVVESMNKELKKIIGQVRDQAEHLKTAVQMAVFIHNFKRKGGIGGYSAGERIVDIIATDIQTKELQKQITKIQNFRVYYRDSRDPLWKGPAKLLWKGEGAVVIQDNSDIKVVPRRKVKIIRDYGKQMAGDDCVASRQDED
Where a SMILES comes first, the peptide text is derived from it. The star is where a group is joined. pNA = O=[N+]([O-])c1ccc(N*)cc1; Boc = CC(C)(C)OC(=O)*; Bn = c1ccc(C*)cc1
OBSERVATION TYPE: inhibition

inhibition for CC(C)(C)OC(=O)N[C@@H](COCc1ccccc1)C(=O)NCC(=O)N[C@@H](CCCN=C(N)N)C(=O)Nc1ccc([N+](=O)[O-])cc1 (Boc-Ser(Bn)-Gly-Arg-pNA) ? > 50%

inhibition for O=C(NCNC(=O)NC1C(=O)NC(=O)N1CO)NC1C(=O)NC(=O)N1CO (stereo not drawn) ? > 50%

inhibition for OCCNCCNC(O)C(O)CO (stereo not drawn) ? < 50%

inhibition for "O=C(CNC(=O)NCc1ccoc1)NNC(=O)Nc1cccc(Cl)c1" ? < 50%

inhibition for N=C(N)NCCCC(NC(N)=O)C(=O)O (single isomer, unassigned) ? < 50%

----------
Entries and their IC50
molecular target: Human immunodeficiency virus type 1 integrase (Human immunodeficiency virus 1, UniProt Q7ZJM1)
Sequence (Q7ZJM1 whole entry): as the sequence (Q7ZJM1 as listed by the source) above
The figure you give is taken to be in nM; do not add the unit.

# COMPOUND, RESULT UNITS, IC50
records = [
    ("Cc1cccc2c1C(O)=C1C(=O)C3C(O)=C(C(=O)NCNC(CO)(CO)CO)C(=O)[C@@H](N(C)C)[C@@H]3C[C@@H]1C2(C)O (stereo not given in full)", "nM", 1100),
    ("O=c1c(O)c(-c2ccc(O)c(O)c2)oc2cc(O)c(O)c(O)c12", "nM", 1300),
    ("Cc1cc(O)c2c(=O)c3c(O)cc(O)c4c5c(O)cc(O)c6c(=O)c7c(O)cc(C)c8c1c2c(c34)c(c78)c65", "nM", 10000),
    ("O=C1c2ccc(O)c(O)c2C(=O)c2c(O)ccc(O)c21", "nM", 4000),
    ("O=c1oc2c(O)c(O)cc3c(=O)oc4c(O)c(O)cc1c4c23", "nM", 5100),
]

IC50 for "C[Si](C)(C)C" ? 17000

IC50 for O=C(CC(O)CCc1ccc(O)c(O)c1)O[C@H]1Cc2cc(O)c(O)cc2O[C@H]1c1ccc(O)c(O)c1 (stereo not given in full) ? 1400

IC50 for "O=C(CCc1ccc(O)c(O)c1)c1ccc(O)c(O)c1O" ? 1700

IC50 for "COc1cccc2c1C(=O)c1c(O)c3c(c(O)c1C2=O)C[C@@](O)(C(=O)CO)C[C@@H]3O[C@H]1C[C@H](N)[C@H](O)[C@H](C)O1" ? 900

IC50 for O=C(/C=C/c1ccc(O)c(O)c1)O[C@H]1[C@H](O)C[C@](O)(C(=O)O)C[C@H]1OC(=O)/C=C/c1ccc(O)c(O)c1 (stereo in doubt; form 1) ? 790

----------
biological target: Human immunodeficiency virus type 1 integrase (Human immunodeficiency virus 1, UniProt Q7ZJM1)
Entries and their pIC50
Lab note — pIC50 values are minus log10 of concentrations in M.

// below: answered molecules
# MOLECULE, pIC50
measured = [
    ("O=C1c2c(O)ccc(O)c2C(=O)c2c(NCCNCCO)ccc(NCCNCCO)c21", 5.10),
    ("Cc1cccc2c1C(O)=C1C(=O)C3C(O)=C(C(=O)NCNC(CO)(CO)CO)C(=O)[C@@H](N(C)C)[C@@H]3C[C@@H]1C2(C)O (stereo partly drawn)", 6.30),
    ("Cc1cccc2c1C(O)=C1C(=O)C3C(O)=C(C(=O)NNC4(C(=O)O)CCCC4)C(=O)[C@@H](N(C)C)[C@@H]3C[C@@H]1C2(C)O (stereo partly drawn)", 5.44),
    ("Cc1cccc2c1C(O)=C1C(=O)C3C(O)=C(C(=O)NCN4CCN(C(=N)N=C(N)N)CC4)C(=O)[C@@H](N(C)C)[C@@H]3C[C@@H]1C2(C)O (stereo partly drawn)", 6.52),
    ("O=C(CC(O)CCc1ccc(O)c(O)c1)O[C@H]1Cc2cc(O)c(O)cc2O[C@H]1c1ccc(O)c(O)c1 (stereo partly drawn)", 6.00),
]

pIC50 for "O=C(CCc1ccc(O)c(O)c1)c1ccc(O)c(O)c1O" ? 6.00

pIC50 for O=C(/C=C\c1ccc(O)c(O)c1)OC1C(O)CC(OC(=O)/C=C\c2ccc(O)c(O)c2)(C(=O)O)CC1O (stereo not drawn) ? 5.11

pIC50 for O=C(/C=C/c1ccc(O)c(O)c1)O[C@H]1[C@H](O)C[C@](O)(C(=O)O)C[C@H]1OC(=O)/C=C/c1ccc(O)c(O)c1 (stereo in doubt; form 2) ? 6.34

----------
molecular target: UniProt Q7ZJM1; conditions: at 1 mM
*1 amine or outer side, *2 acyl side, *3 side chain or, on linkers, in order; H or OH if unused. Where a SMILES comes first, the peptide text is derived from it. Bridges are numbered along the chain shown (N, C = ends). [ ]: non-standard residue; d: D form. The star is where a group is joined. X1 = NC1=N[C@@H]([C@H](N[*:1])C(=O)[*:2])C[C@H](O)N1; ΔAla(Z-3-ureido) = NC(=O)N/C=C(\N)C(=O)O; AMC = Cc1cc(=O)oc2cc(N*)ccc12; β3hOrn = NCCC[C@H](N)CC(=O)*; Dap = NC[C@H](N)C(=O)O
OBSERVATION TYPE: inhibition

// below: answered compounds
# COMPOUND, inhibition
records = [
    ("OC[C@H]1O[C@@H](SC2O[C@H](CO)[C@H](O)[C@H](O)[C@H]2O)[C@H](O)[C@@H](O)[C@H]1O (stereo partly drawn)", "< 50%"),
    ("NC(=O)c1ccccc1NC(=O)Nc1cc(NC(=O)Nc2ccccc2C(N)=O)c(Br)cc1Br", "> 50%"),
    ("NCCC[C@H](N)CC(=O)N[C@H]1CNC(=O)[C@H]([C@H]2C[C@H](O)NC(N)=N2)NC(=O)/C(=C/NC(N)=O)NC(=O)[C@H](CO)NC(=O)[C@H](CO)NC1=O (β3hOrn-[Dap]SS[ΔAla(Z-3-ureido)][X1]; lactam 1-C)", "< 50%"),
]

Notebook: pull reported inhibition for UniProt Q7ZJM1, entry "CCNC(=O)[C@H](CCCCN(N)N)NC(=O)CNC(=O)[C@H](CC(C)C)NC(=O)[C@@H](NC(=O)[C@H](O)[C@@H](O)[C@H](O)[C@H](O)CO)C(C)C" < 50%

Notebook: pull reported inhibition for UniProt Q7ZJM1, entry "CN[C@@H]1[C@H](O[C@H]2[C@H](O[C@H]3[C@H](O)[C@@H](O)[C@H](N=C(N)N)[C@@H](O)[C@@H]3N=C(N)N)O[C@@H](C)[C@]2(O)C=O)O[C@@H](CO)[C@H](O)[C@H]1O" < 50%

Notebook: pull reported inhibition for UniProt Q7ZJM1, entry "O=C(O[C@@H]1Cc2c(O)cc(O)cc2O[C@@H]1c1cc(O)c(O)c(O)c1)c1cc(O)c(O)c(O)c1" > 50%

Notebook: pull reported inhibition for UniProt Q7ZJM1, entry CCC1C/C(=N\NC(N)=O)C(NNC(N)=O)C(C)C1 (stereo not drawn) < 50%

Notebook: pull reported inhibition for UniProt Q7ZJM1, entry NNC(=O)C(O)C(O)C(O)C(O)CO (stereo not drawn) > 50%

Notebook: pull reported inhibition for UniProt Q7ZJM1, entry "N/N=C(\S)Nc1ccc(N/C(S)=N/N)cc1" > 50%

Notebook: pull reported inhibition for UniProt Q7ZJM1, entry Cc1cc(=O)oc2cc(NC(=O)[C@H](CCCN=C(N)N)NC(=O)CN)ccc12 (H-Gly-Arg-{AMC}) < 50%

Notebook: pull reported inhibition for UniProt Q7ZJM1, entry "NC[C@@H](O)c1ccc(OC(=O)[C@H](O)[C@@H](O)C(=O)O)c(OC(=O)[C@H](O)[C@@H](O)C(=O)O)c1" > 50%

Notebook: pull reported inhibition for UniProt Q7ZJM1, entry CCCCCCCCCCCCC/C=C/C(O)C(N)CO[C@@H]1O[C@H](CO)[C@H](O)[C@H](O)[C@H]1O (stereo partly drawn) > 50%

Notebook: pull reported inhibition for UniProt Q7ZJM1, entry "NC(N)=Nc1nc(CSCC/C(N)=N/S(N)(=O)=O)cs1" < 50%
